target: T1, human gpr-54 receptor (human, UniProt Q969F8 1-398); experiment: whole-cell competition binding against 125I-kisspeptin, CHO cells stably transfected with GPR54 (CPM); the fall of the curve lies between Total and -10 LogM [200]
T1 construct: whole, on cells; CHO cells stably expressing the human gpr-54 receptor came from Prof; G. Vassart; also called kisspeptin receptor; AXOR12
T1 sequence (Q969F8 whole entry): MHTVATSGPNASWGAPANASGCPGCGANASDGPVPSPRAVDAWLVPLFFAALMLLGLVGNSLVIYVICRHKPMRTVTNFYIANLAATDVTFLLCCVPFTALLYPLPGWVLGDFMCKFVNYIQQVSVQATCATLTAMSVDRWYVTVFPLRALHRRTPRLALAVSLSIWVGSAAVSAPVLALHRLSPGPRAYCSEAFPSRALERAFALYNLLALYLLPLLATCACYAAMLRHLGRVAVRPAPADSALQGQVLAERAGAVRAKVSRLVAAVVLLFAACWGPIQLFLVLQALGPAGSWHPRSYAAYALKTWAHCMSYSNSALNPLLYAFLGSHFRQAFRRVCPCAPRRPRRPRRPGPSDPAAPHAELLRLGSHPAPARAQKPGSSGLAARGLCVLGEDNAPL
Non-standard residues stand in square brackets, D forms with d.
Assay readout: pIC50
# pIC50 = -log10(concentration in molar units)

Fill in the blank: the reported pIC50 of Ac-FGL[dR]W-NH2 (not fully specified, kisspeptin-10 analogue; also called acFGL[(D)-R]W) [200] is ____.
11.60
